src = paper PMC9005681

# Measured on: cloned human or rodent CNS receptors, channels, and transporters (PDSP panel) (Homo sapiens)
# Construct: expressed in transfected cells
# Sequence (P25021 whole entry): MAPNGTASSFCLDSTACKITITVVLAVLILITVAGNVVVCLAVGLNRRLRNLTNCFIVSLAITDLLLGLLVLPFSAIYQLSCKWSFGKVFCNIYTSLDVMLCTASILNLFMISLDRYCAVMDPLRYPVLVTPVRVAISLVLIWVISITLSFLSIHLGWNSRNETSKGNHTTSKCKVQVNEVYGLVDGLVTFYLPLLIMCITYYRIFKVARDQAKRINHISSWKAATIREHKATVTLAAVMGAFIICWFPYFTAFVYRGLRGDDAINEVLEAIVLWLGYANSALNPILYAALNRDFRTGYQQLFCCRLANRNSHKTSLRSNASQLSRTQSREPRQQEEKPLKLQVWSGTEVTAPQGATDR
# Assay protocol: PDSP GPCR panel primary binding assays at 10 μM
# Stated conditions: H2; primary assay, mean inhibition

[
  {
    "Molecule": "O=c1oc2ccccc2cc1-c1cn2cc(Cc3ccc(F)cc3)sc2n1 [UNC10302680A, iMDK]",
    "Mean % [%]": 13.61
  },
  {
    "Molecule": "CNc1nc(C)nc(N[C@H]2CCC[C@@H](C(=O)NCc3ccc(C#N)cc3C(F)(F)F)C2)n1 [UNC10302679A, GSK2256294A]",
    "Mean % [%]": -21
  },
  {
    "Molecule": "CCC(=O)N1CCC(NC(=O)Nc2ccc(OC(F)(F)F)cc2)CC1 [UNC10302681A, TPPU]",
    "Mean % [%]": -16.74
  },
  {
    "Molecule": "CC(=O)N1CCC(NC(=O)NC23CC4CC(CC(C4)C2)C3)CC1 [UNC10302683A, AR9281]",
    "Mean % [%]": -19
  },
  {
    "Molecule": "O=C(NC1CC1)C(=O)C(Cc1ccccc1)NC(=O)[C@H]1CCC(=O)N1Cc1ccccc1 (some centres unmarked) [UNC10302676A, ABT-957 (Alicapistat)]",
    "Mean % [%]": 2.47
  }
]
